system: HCV replicon; experiment: Anti-HCV assay / replicon assay (EC50, luciferase read-out); assay type: cell-based, hepatitis C virus (HCV); conditions: CC50/EC50 ratio (selectivity index)
Reported Property: CC50/EC50
Form field (numeric): enter value without unit.

{"columns": ["Compound", "Target Entity", "CC50/EC50"],
 "data": [
  ["COc1ccc(-c2ccc3nc(N)nc(N4CCN(CC(=O)NCCc5ccccc5)CC4)c3n2)cc1OC [Example 260]", "HCV replicon", 73],
  ["CCOc1nc(N)nc2ccc(-c3cccc(F)c3)nc12 [Example 280]", "HCV replicon", 125],
  ["Nc1nc(N2CCS(=O)(=O)CC2)c2nc(-c3ccc(F)cc3)ccc2n1 [Example 406]", "HCV replicon", 1931],
  ["Nc1nc(N2CCN(C(=O)COc3ccc(Cl)cc3)CC2)c2nc(-c3ccc4c(c3)OCCO4)ccc2n1 [Example 189]", "HCV replicon", 50]
]}

Pending compound:
Task: Identify CC50/EC50 associated with the compound CSc1nc(N)nc2ccc(-c3ccc(F)cc3)nc12 [Example 392]
Result: 512

----------
tested on: Huh-7 HCV replicon cells; assay: CC50 assay in Huh-7 HCV replicon cells (CellTiter-Glo); assay type: cell-based, human; settings: 3 days, 50% cytostatic concentration
Known CC50 of a selection of compounds
Note: unit µM is implicit; provide only the numeric part.

Below, 2 compounds whose answers are already recorded.
{"columns": ["Smiles Data", "Target Entity", "Data Value"],
 "data": [
  ["CCOc1nc(N)nc2ccc(-c3ccc(OC)c(OC)c3)nc12", "Huh-7 HCV replicon cells", 50.1],
  ["CCSc1nc(N)nc2ccc(-c3ccc(F)cc3)nc12", "Huh-7 HCV replicon cells", 36]
]}

Task: Identify CC50 associated with the compound Nc1nc(N2CCOCC2)c2nc(-c3ccc4c(c3)OCO4)ccc2n1
Result: 25.1

Task: Identify CC50 associated with the compound CCOc1nc(N)nc2ccc(-c3cccs3)nc12
Result: 50.1

Task: Identify CC50 associated with the compound COc1ccc(-c2ccc3nc(N)nc(N4CCN(C(=O)COc5ccccc5)CC4)c3n2)cc1OC
Result: 25.1

Task: Identify CC50 associated with the compound CCOc1nc(N)nc2ccc(-c3ccc(N)cc3)nc12
Result: 50.1

----------
system: HCV replicon; experiment: Anti-HCV assay / replicon assay (EC50, luciferase read-out); type: cell-based, hepatitis C virus (HCV); details: CC50/EC50 ratio (selectivity index)
Reported Property: CC50/EC50
Form field (numeric): enter value without unit.

Below, 2 compounds whose answers are already recorded.
{"columns": ["Compound", "CC50/EC50"],
 "data": [
  ["COc1ccc(-c2ccc3nc(N)nc(N4CCCN(C(=O)Nc5cccc(C)c5)CC4)c3n2)cc1OC", 218],
  ["Nc1nc(N2CCN(C(=O)COc3ccc(Cl)cc3)CC2)c2nc(-c3ccncc3)ccc2n1", 4585]
]}

Task: Identify CC50/EC50 associated with the compound CCCCCOc1nc(N)nc2ccc(-c3ccccc3F)nc12
Result: 66

Task: Identify CC50/EC50 associated with the compound Cc1cccc(NC(=O)N2CCN(c3nc(N)nc4ccc(-c5ccccc5)nc34)CC2)c1
Result: 200

Task: Identify CC50/EC50 associated with the compound CCOc1nc(N)nc2ccc(-c3cccs3)nc12
Result: 113
